# testedTarget: NS3 (Hepatitis C virus, UniProt A3EZJ3)
# Sequence (A3EZJ3 whole entry): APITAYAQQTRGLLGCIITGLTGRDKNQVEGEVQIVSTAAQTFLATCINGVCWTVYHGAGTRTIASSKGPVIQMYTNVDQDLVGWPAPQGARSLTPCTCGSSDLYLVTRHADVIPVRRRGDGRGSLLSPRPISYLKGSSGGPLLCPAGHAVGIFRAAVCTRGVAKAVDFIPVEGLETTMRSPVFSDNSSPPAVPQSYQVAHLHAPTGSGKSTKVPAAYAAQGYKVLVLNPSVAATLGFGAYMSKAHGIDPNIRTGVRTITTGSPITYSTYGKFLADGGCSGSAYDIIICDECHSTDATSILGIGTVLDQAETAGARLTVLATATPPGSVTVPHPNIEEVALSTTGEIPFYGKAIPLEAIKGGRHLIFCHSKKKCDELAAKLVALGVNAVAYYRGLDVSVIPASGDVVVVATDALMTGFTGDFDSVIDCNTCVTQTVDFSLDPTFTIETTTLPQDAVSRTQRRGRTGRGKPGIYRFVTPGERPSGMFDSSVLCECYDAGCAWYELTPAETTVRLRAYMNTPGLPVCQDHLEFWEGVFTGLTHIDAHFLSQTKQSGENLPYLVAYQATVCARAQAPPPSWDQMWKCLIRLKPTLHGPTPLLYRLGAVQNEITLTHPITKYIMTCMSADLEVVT
# experimentDescription: Inhibitory activity against hepatitis C virus NS3 protease
# Parameters: species or system Hepacivirus hominis
pIC50: −log10 of the molar value.
assayMetric: pIC50

A. C=C[C@@H]1C[C@]1(NC(=O)C1CC(Oc2ccnc3ccccc23)CN1C(=O)[C@@H](NC(=O)[C@@H](NC(C)=O)C1CCCCC1)C(C)C)C(=O)O (single isomer, unassigned)
B. CC(=O)N[C@H](C(=O)N[C@H](C(=O)N1CC(Oc2ccnc3cc(C(F)(F)F)ccc23)CC1C(=O)NC1(C(=O)O)CC1)C(C)C)C1CCCCC1 (single isomer, unassigned)
C. CC(=O)N[C@H](C(=O)N[C@H](C(=O)N1CC(OCc2cccc3ccccc23)CC1C(=O)NC1(C(=O)O)CC1)C(C)C)C1CCCCC1 (single isomer, unassigned)
Qu. Order field: pIC50 | Direction: descending (largest first) Hello, could you send the labels back in the order asked? Thank you.
Ans. A, C, B
